System: NCI-H226 lung
ASSAY PROCEDURE: NCI tumour cell line growth inhibition, 48 h
# maps each entry to its GI50

Some compounds with known GI50 results, for comparison:
* CCOC(=O)CC1(O)C=CC(=O)C=C1 | 4.79 µg/mL
* Nc1cc(-c2ccccc2)ccc1O | > 100 µM
* CCN(CC)c1ccc2c(c1)Oc1nc(N)c(C#N)c(N)c1C2Sc1ccc(SC)cc1 (stereo not given) | 1.53 µM

Record COc1cc(CSc2nc3ccc(C)cc3c(=O)n2Cc2ccccc2)cc(OC)c1OC : what is its GI50 with NCI-H226 lung? 11.5 µM

Param readout= GI50; system= NCI-H226 lung; entry= COCCOC(=O)C1=C(C)NC2=C(C(=O)CC(c3ccccc3OC)C2)C1c1cccc(O)c1 (stereo not given) ; returns value. 8.64 µM

Recorded GI50 for ClCCN(CCCl)c1ccc(-n2cnc3c(Cl)ncnc32)cc1 with NCI-H226 lung, please? 13.3 µM

Notebook: pull reported GI50 for NCI-H226 lung, entry COc1ccc2[nH]cc(-c3nc(-c4cn(C)c5ccncc45)cs3)c2c1 18.3 µM

Notebook: pull reported GI50 for NCI-H226 lung, entry CC1(C)N=C(N)N=C(N)N1c1ccc(F)c(C(F)(F)F)c1 > 27.6 µM

Please state recorded GI50 (tested on NCI-H226 lung) of CN1C(=O)CNC(=O)[C@H](NC(=O)c2nc3ccccc3cc2O)CSSC[C@H]1C(=O)NCCc1nc2ccccc2cc1O 17.3 µM

Give NCI-H226 lung GI50 for COc1ccc(O)c(C(=O)c2ccc(C(=O)O[C@@H]3CCCNC[C@H]3NC(=O)c3ccncc3)cc2)c1F 1.68 µM

State its GI50 on NCI-H226 lung: CCC[CH2][Sn]([CH2]CCC)([O]C(=O)c1cccc(F)c1)[O]C(=O)c1cccc(F)c1 1.16 µM

* * *

Test system: HOP-92 NSCLC
ASSAY PROCEDURE: NCI tumour cell line growth inhibition, 48 h
Each entry below lists one item and its recorded TGI value.
Reply numerically in µM, unit not repeated.

Worked examples, 5 molecules total:
- CC1(c2ccc(Cl)cc2)CC(c2ccc(Cl)cc2)=C(C#N)C(=C(C#N)C#N)N1 (configuration not stated): 11
- O=C(Cn1nc(Br)c(Br)c1Br)c1ccccc1: 66.8
- COc1ccc2c3c1OC1C(=O)C=CC4(O)C(C2)NCC[C@@]314 (some centres not stated): 20.5
- CN1CCN(c2ccc3c4c(cccc24)C(=O)N(CCN2CCN(CCCN4CCN(CCN5C(=O)c6cccc7c(N8CCN(C)CC8)ccc(c67)C5=O)CC4)CC2)C3=O)CC1: 10.9
- CCN(CC)c1ccc2c(c1)Oc1nc(N)c(C#N)c(N)c1C2Sc1ccc(SC)cc1 (configuration not stated): 3.43

Quick check: TGI on HOP-92 NSCLC, item NC1C/C(=N\O)c2c(I)sc(I)c21 (configuration not stated) ? 34.5

# query: TGI | item O=C(/C=C/c1ccc(O)c(O)c1)OCCc1cccc2ccccc12 | system: HOP-92 NSCLC 23.8

API: value(readout=TGI, system=HOP-92 NSCLC) for record COC(=O)CCC(=O)c1c(C)[nH]c(/C=C2\N=C(c3ccc[nH]3)C=C2OC)c1C 1.55

Identify the measured TGI of Cc1csc2nc(-c3ccc([N+](=O)[O-])cc3)c(/C=N/N=C(N)N)n12 for HOP-92 NSCLC. 2.22

Query for HOP-92 NSCLC: what TGI does the record show for CCC[C@H](N[C@@H]1CCc2cc(F)cc(F)c2C1)C(=O)Nc1cn(C(C)(C)CNCC(C)(C)C)cn1 ? 11.1

Under HOP-92 NSCLC: TGI value of O=C(Oc1ccccc1)c1cc2cc(CCl)ccc2oc1=O ? 28.7
